Cited source: ChEMBL document CHEMBL1134183

Target sequence: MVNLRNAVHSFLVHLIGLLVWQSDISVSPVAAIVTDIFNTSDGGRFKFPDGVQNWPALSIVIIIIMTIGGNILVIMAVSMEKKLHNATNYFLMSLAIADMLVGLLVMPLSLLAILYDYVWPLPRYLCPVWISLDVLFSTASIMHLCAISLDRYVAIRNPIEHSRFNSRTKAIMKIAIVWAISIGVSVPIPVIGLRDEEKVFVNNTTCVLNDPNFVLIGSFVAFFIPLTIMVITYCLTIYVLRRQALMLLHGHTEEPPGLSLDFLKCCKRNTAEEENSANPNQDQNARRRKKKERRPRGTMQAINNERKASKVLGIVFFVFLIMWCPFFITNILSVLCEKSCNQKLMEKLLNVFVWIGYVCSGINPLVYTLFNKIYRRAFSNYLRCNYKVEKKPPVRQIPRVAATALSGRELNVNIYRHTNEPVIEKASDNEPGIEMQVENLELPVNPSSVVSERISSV
measured-attribute: IC50 (nM)

# entry-smiles, measured-attribute, measured
measured = [
    ("Cc1csc2c1-n1cccc1/C2=N/OCCN(C)C", "IC50", 2140),
]

* * *

# measurement-target: Serotonin 3 (5-HT3) receptor
# assay-info: Binding affinity towards 5-hydroxytryptamine 3 receptor
# Type: protein-complex assay
This listing pairs compounds with measured -Log IC50.

# compound, -Log IC50
data = [
    ("CN(CCO/N=C1\\c2sccc2-n2cccc21)Cc1ccccc1", 7.63),
    ("c1ccc(CNCCO/N=C2\\c3ccccc3-n3cccc32)cc1", 6.54),
    ("CN(C)CCO/N=C1\\c2sccc2-n2cccc21", 8.46),
    ("c1ccc(CN2CCN(c3nc4sccc4n4cccc34)CC2)cc1", 8.34),
    ("Cc1csc2c1-n1cccc1/C2=N/OCCN1CCCCC1", 8.4),
    ("CN1CCCC1CCO/N=C1\\c2ccccc2-n2cccc21 (stereo not drawn)", 7.85),
    ("CCN(CC)CCO/N=C1\\c2sccc2-n2cccc21", 8.3),
    ("Cc1csc2c1-n1cccc1/C2=N/OCCN1CCCC1", 8.7),
    ("Cc1csc2c1-n1cccc1/C2=N/OCCCN(C)Cc1ccccc1", 7.47),
    ("Cc1csc2c1-n1cccc1/C2=N/OCCCN(C)C", 8.6),
    ("CN(C)CCO/N=C1\\c2cc(Cl)ccc2-n2cccc21", 7.06),
    ("CN(C)CCO/N=C1\\c2ccccc2-n2cccc21", 8.24),
    ("Cc1csc2c1-n1cccc1/C2=N/OCCN(C)Cc1ccccc1", 8.16),
    ("Cc1csc2c1-n1cccc1/C2=N/OCCN", 7.62),
    ("Cc1ccc(-c2csc3c2-n2cccc2/C3=N/OCCN)cc1", 6.66),
    ("Cc1csc2c1-n1cccc1/C2=N/OCCNCc1ccccc1", 7.54),
    ("NCCO/N=C1\\c2ccccc2-n2cccc21", 6.66),
    ("Cc1csc2c1-n1cccc1/C2=N/OCCC1CCCN1C (stereo not drawn)", 8.7),
]

* * *

# measurement-target: UniProtKB P08908
# Sequence (P08908 whole entry): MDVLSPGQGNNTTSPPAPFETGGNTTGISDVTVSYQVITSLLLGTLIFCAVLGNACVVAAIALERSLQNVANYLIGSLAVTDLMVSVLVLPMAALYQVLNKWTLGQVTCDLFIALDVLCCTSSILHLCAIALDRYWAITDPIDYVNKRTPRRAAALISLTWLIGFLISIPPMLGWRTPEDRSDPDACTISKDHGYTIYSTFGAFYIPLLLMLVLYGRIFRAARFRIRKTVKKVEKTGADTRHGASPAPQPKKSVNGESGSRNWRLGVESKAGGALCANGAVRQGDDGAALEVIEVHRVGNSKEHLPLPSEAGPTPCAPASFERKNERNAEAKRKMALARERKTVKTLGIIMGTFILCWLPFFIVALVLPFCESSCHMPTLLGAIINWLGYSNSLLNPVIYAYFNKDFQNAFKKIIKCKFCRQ
pIC50: −log10 of the molar value.
measured-attribute: pIC50

# entry-smiles, measured-attribute, measured
records = [
    ("Cc1csc2c1-n1cccc1/C2=N/OCCN(C)C", "pIC50", 5.24),
]
